# Lookup of reported inhibition at 1 µM keyed by entry
EXPERIMENTAL_TARGET: lipoxygenase (Rattus norvegicus)
Construct: Single cell suspensions of RBL-1 cells are homogenized to obtain the microsomal fraction containing lipoxygenase and cyclooxygenase; endogenous in cells; host or cells: RBL-1 (rat basophilic leukemia) cells, homogenate / microsomal fraction
Sequence (P12527 1-673): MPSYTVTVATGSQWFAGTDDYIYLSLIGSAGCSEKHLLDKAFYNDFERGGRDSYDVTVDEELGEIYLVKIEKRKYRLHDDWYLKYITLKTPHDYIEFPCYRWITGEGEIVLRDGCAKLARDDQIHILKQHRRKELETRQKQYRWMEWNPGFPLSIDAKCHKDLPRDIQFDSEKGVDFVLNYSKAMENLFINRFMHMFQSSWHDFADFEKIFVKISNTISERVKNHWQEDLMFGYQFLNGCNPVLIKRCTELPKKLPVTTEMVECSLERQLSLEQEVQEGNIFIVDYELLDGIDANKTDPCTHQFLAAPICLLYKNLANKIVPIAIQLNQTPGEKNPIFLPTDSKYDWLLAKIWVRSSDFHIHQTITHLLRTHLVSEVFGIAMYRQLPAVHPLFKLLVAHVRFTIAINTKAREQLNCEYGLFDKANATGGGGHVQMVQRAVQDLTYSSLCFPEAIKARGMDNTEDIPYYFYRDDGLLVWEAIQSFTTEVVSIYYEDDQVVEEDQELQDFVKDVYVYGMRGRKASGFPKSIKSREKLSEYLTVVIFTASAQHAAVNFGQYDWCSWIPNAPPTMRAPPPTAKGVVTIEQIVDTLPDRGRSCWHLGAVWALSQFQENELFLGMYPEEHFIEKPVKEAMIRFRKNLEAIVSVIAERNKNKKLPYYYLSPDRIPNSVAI
PROTOCOL_SUMMARY: Inhibition of lipoxygenase derived from rat basophilic leukemia (RBL-1) cells, formation of products 5,12-di-HETE (L1) and 5-HETE (L2)
Assay type: biochemical
ASSAY_CONTEXT: read-out: In vitro % Inhibition, L2 (lipoxygenase product 5-HETE formation)
Answer format: numeric, % implied, no suffix.

Illustrative cases are given below, each with its answer.
{"COMPOUND": "CCOC(=O)c1cc(OC)ccc1Nc1ccc(O)cc1", "SCALE_UNIT": "%", "NUMERIC_VALUE": 91}
{"COMPOUND": "CCOC(=O)c1ccccc1Nc1ccc(O)c(Cl)c1", "SCALE_UNIT": "%", "NUMERIC_VALUE": 99}
{"COMPOUND": "CCOC(=O)c1ccccc1Nc1ccc(O)cc1 [Example 2b, Ethyl 2-(4-hydroxyphenylamino)benzoate]", "SCALE_UNIT": "%", "NUMERIC_VALUE": 93}

Pending compound:
Task: Any idea what its inhibition at 1 µM is? The compound is CCOC(=O)c1ccccc1Nc1ccccc1O [Example 1d, Ethyl 2-(2-hydroxyphenylamino)benzoate]
Result: 98

----------
EXPERIMENTAL_TARGET: cyclooxygenase (Rattus norvegicus)
Construct: Single cell suspensions of RBL-1 cells are homogenized to obtain the microsomal fraction containing lipoxygenase and cyclooxygenase; endogenous in cells; host or cells: RBL-1 (rat basophilic leukemia) cells, homogenate / microsomal fraction
PROTOCOL_SUMMARY: Inhibition of cyclooxygenase derived from rat basophilic leukemia (RBL-1) cells, formation of product PDG2 (C1)
Assay type: biochemical
ASSAY_CONTEXT: dose of 1 μM; RBL-1 homogenate; 5 min preincubation, 15 min incubation at 37° C; read-out: In vitro % Inhibition, C1 (cyclooxygenase product formation)
PROPERTY_LABEL: inhibition at 1 µM (%)
Answer format: numeric, % implied, no suffix.

{"COMPOUND": "CCOC(=O)c1ccccc1Nc1ccc(O)cc1C [Example 4c]", "PROPERTY_LABEL": "inhibition at 1 µM", "NUMERIC_VALUE": 0}
{"COMPOUND": "CCOC(=O)c1ccccc1Nc1ccccc1O [Example 1d, Ethyl 2-(2-hydroxyphenylamino)benzoate]", "PROPERTY_LABEL": "inhibition at 1 µM", "NUMERIC_VALUE": 34}
{"COMPOUND": "CCOC(=O)c1ccccc1Nc1ccc(O)c(Cl)c1 [Example 5c]", "PROPERTY_LABEL": "inhibition at 1 µM", "NUMERIC_VALUE": 26}
{"COMPOUND": "CCOC(=O)c1ccccc1Nc1ccc(O)cc1 [Example 2b, Ethyl 2-(4-hydroxyphenylamino)benzoate]", "PROPERTY_LABEL": "inhibition at 1 µM", "NUMERIC_VALUE": 19}

Task: Any idea what its inhibition at 1 µM is? The compound is CCOC(=O)c1cc(OC)ccc1Nc1ccc(O)cc1 [Example 3d]
Result: 18

----------
EXPERIMENTAL_TARGET: lipoxygenase (Rattus norvegicus)
Construct: Single cell suspensions of RBL-1 cells are homogenized to obtain the microsomal fraction containing lipoxygenase and cyclooxygenase; endogenous in cells; host or cells: RBL-1 (rat basophilic leukemia) cells, homogenate / microsomal fraction
PROTOCOL_SUMMARY: Inhibition of lipoxygenase derived from rat basophilic leukemia (RBL-1) cells, formation of products 5,12-di-HETE (L1) and 5-HETE (L2)
Type: biochemical
ASSAY_CONTEXT: IC50, L2 (lipoxygenase product 5-HETE formation), L2, 5-HETE; RBL-1 homogenate
# Lookup of reported IC50 keyed by entry
Answer format: numeric, nM implied, no suffix.

Illustrative cases are given below, each with its answer.
{"COMPOUND": "CCOC(=O)c1ccccc1Nc1ccc(O)cc1 [Example 2b, Ethyl 2-(4-hydroxyphenylamino)benzoate]", "IC50 / nM": 250}
{"COMPOUND": "CCOC(=O)c1ccccc1Nc1ccccc1O [Example 1d, Ethyl 2-(2-hydroxyphenylamino)benzoate]", "IC50 / nM": 100}
{"COMPOUND": "CCOC(=O)c1ccccc1Nc1ccc(O)c(Cl)c1", "IC50 / nM": 300}

Task: Any idea what its IC50 is? The compound is "CCOC(=O)c1cc(OC)ccc1Nc1ccc(O)cc1"
Result: 100

----------
EXPERIMENTAL_TARGET: lipoxygenase (Rattus norvegicus)
Construct: Single cell suspensions of RBL-1 cells are homogenized to obtain the microsomal fraction containing lipoxygenase and cyclooxygenase; endogenous in cells; host or cells: RBL-1 (rat basophilic leukemia) cells, homogenate / microsomal fraction
PROTOCOL_SUMMARY: Inhibition of lipoxygenase derived from rat basophilic leukemia (RBL-1) cells, formation of products 5,12-di-HETE (L1) and 5-HETE (L2)
Type: biochemical
ASSAY_CONTEXT: read-out: In vitro % Inhibition, L1 (lipoxygenase product 5,12-di-HETE formation)
# Lookup of reported inhibition at 1 µM keyed by entry
Answer format: numeric, % implied, no suffix.

{"COMPOUND": "CCOC(=O)c1cc(OC)ccc1Nc1ccc(O)cc1", "inhibition at 1 µM / %": 90}

Task: Any idea what its inhibition at 1 µM is? The compound is CCOC(=O)c1ccccc1Nc1ccc(O)cc1 [Example 2b, Ethyl 2-(4-hydroxyphenylamino)benzoate]
Result: 77

Task: Any idea what its inhibition at 1 µM is? The compound is CCOC(=O)c1ccccc1Nc1ccccc1O [Example 1d, Ethyl 2-(2-hydroxyphenylamino)benzoate]
Result: 95

Task: Any idea what its inhibition at 1 µM is? The compound is "CCOC(=O)c1ccccc1Nc1ccc(O)c(Cl)c1"
Result: 90

----------
# Lookup of reported IC50 keyed by entry
EXPERIMENTAL_TARGET: cyclooxygenase (Rattus norvegicus)
Construct: Single cell suspensions of RBL-1 cells are homogenized to obtain the microsomal fraction containing lipoxygenase and cyclooxygenase; endogenous in cells; host or cells: RBL-1 (rat basophilic leukemia) cells, homogenate / microsomal fraction
Sequence (Q63921 27-602): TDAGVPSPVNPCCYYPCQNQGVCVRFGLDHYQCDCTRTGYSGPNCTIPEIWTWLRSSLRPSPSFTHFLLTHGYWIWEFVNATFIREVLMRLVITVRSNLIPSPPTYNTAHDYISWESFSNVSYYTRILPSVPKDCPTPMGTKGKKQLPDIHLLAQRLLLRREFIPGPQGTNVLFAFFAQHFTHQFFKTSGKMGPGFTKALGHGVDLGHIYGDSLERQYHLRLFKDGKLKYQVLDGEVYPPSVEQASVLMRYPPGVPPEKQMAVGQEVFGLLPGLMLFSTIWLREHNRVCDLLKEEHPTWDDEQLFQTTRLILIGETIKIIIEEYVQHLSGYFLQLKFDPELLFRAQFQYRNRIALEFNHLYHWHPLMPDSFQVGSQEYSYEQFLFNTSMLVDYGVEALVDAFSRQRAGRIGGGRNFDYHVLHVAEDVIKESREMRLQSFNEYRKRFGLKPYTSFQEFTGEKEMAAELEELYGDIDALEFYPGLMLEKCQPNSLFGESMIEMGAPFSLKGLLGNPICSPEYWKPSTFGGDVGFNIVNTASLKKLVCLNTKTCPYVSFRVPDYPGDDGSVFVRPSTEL
PROTOCOL_SUMMARY: Inhibition of cyclooxygenase derived from rat basophilic leukemia (RBL-1) cells, formation of product PDG2 (C1)
Format: biochemical
ASSAY_CONTEXT: C1, PDG2; RBL-1 homogenate

Illustrative cases are given below, each with its answer.
{"MOLECULE": "CCOC(=O)c1cc(OC)ccc1Nc1ccc(O)cc1 [Example 3d]", "EXPERIMENTAL_TARGET": "cyclooxygenase (Rattus norvegicus)", "IC50": "> 1 µM"}
{"MOLECULE": "CCOC(=O)c1ccccc1Nc1ccc(O)c(Cl)c1 [Example 5c]", "EXPERIMENTAL_TARGET": "cyclooxygenase (Rattus norvegicus)", "IC50": "> 1 µM"}
{"MOLECULE": "CCOC(=O)c1ccccc1Nc1ccc(O)cc1 [Example 2b, Ethyl 2-(4-hydroxyphenylamino)benzoate]", "EXPERIMENTAL_TARGET": "cyclooxygenase (Rattus norvegicus)", "IC50": "> 1 µM"}

Pending molecule:
Task: Any idea what its IC50 is? The molecule is CCOC(=O)c1ccccc1Nc1ccccc1O [Example 1d, Ethyl 2-(2-hydroxyphenylamino)benzoate]
Result: 0.32 µM
